target: SARS-CoV-2 full length spike protein, V483A mutant, expressed on CHO cells (SARS-CoV-2, UniProt P0DTC2 14-1273)
METRIC: median fluorescence intensity, fold over isotype control (fold over isotype)
Numeric only. Scale: fold over isotype

antibody 509 (antibody, V domains shown) VH: QVQLVESGGGVVQPGRSLRLSCAASGFNLSSYAMHWVRQASGKGLEWVSLISYDGSIKYYTDSVKGRFTVSGDNSKNTLFLQMNSLRADDSALYYCVRGGVSGPNSFDLWGQGTTVTVSS VL: DVVMTQSPLSLPVTLGQPASISCRSSQSLVYSDGNTYVNWFQQRPGQSPRRLIYKVSIRASGVPDRFSGSGSGTDFALKISRVEAEDVGVYYCMQGTHWPVTFGQGTKVEIK; 11.4
antibody 496 (antibody, V domains shown) VH: QVQLVQSGAEVKKPGASVKVSCKASGYTFTDYYIHWVRQAPGQGLEWMGWINPNSGGTNYAQKFQGRLTMTRDTSISTAYMELSRLRSDDTAVYYCARVYSMFREFIINPYYYYYGLDVWGQGTTVTVSS VL: QSALTQPASVSGSPRQSITISCTGTSSDVGSYNLVSWYQQHPGKAPKLMIYEGSKRPSGVSNRFSGSKSGNTASLAISGLQAEDEANYYCCSYAGSSTLVFGGGTKLTVL; 12.6

The recorded median fluorescence intensity, fold over isotype control for antibody 492 (antibody, V domains shown) VH: QVQLVESGGGVVQPGRSLRLSCAASGFTFSSYGMHWVRQAPGKGLEWVAVISYDGSNKYYADSVKGRFTISRDNSKNTLYLQMNSLRAEDTAVYYCAKDGILWWWWGYFDYWGQGTLVTVSS VL: QSVLTQPPSVSGAPGQRVTISCTGSSSNIGAGFDVHWYQQLPGTAPKLLIYGNSNRPSGVPDRFSGSKSGTSASLAITGLQAEDEADYYCQSYDSSLSVVFGGGTKLTVL is 7.71
